Give measured IC50 for each item. Keep answers brief.
# target under test: binding of KRAS^G12C to SOS1 (Homo sapiens, UniProt Q07889)
# Construct: Tag1 (unspecified)
# Sequence (Q07889 1-1333): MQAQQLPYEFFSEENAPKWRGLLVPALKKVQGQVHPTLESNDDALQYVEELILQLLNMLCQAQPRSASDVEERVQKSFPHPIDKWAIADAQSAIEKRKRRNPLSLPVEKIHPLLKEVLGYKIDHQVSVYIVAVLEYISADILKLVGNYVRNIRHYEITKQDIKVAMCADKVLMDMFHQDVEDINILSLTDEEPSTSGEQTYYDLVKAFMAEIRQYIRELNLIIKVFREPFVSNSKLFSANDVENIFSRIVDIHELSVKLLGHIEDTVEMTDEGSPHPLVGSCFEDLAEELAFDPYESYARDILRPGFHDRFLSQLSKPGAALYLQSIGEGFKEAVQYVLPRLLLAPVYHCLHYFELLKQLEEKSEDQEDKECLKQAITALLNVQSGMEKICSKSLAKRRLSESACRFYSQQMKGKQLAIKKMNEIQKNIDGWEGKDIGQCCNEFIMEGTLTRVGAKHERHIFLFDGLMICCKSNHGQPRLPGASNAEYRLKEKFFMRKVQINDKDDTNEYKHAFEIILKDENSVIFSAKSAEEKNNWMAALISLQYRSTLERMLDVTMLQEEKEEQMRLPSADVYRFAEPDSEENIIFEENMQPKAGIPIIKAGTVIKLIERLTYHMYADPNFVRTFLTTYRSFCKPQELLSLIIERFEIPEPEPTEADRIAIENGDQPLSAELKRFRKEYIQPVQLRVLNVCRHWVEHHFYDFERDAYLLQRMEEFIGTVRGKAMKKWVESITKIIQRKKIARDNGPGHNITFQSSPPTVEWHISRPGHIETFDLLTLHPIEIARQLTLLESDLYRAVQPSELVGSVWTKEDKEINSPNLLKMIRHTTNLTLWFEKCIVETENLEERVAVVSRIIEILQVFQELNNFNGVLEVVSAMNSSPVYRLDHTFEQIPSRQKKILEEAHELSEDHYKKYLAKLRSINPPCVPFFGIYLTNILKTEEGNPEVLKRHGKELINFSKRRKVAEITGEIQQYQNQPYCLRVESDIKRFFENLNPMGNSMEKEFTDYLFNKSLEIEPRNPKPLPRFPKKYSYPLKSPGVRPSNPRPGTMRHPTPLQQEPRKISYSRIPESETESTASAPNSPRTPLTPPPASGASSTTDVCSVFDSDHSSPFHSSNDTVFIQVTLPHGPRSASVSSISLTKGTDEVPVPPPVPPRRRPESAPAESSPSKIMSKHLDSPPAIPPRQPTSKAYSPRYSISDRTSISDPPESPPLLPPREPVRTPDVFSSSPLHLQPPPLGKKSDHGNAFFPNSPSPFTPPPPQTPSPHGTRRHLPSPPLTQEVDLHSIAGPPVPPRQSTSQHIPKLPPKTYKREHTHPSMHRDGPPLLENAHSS
# measurement notes: Inhibition of the binding of KRAS^G12C to SOS1
# conditions used: Tag1-SOS1 / Tag2-KRAS^G12C, 2 h incubation at room temperature; read-out: IC50 (nM), inhibitory activity on the binding of KRAS^G12C to SOS1
# output: bare number, implied unit nM

The reported value for COc1cc2nc(C)nc(N[C@H](C)c3cc(N)cc(C(F)(F)F)c3)c2cc1OC[C@H](C)OC1COC1 in terms of IC50 is 6.2

The reported value for COCCOc1cc2c(N[C@H](C)c3cccc(C(F)(F)C(C)(C)O)c3Cl)nc(C)nc2cc1OC in terms of IC50 is 20

The reported value for COc1cc2nc(C)nc(N[C@H](C)c3cc(C(F)(F)F)cc(N)n3)c2cc1OCCOC1CC1 in terms of IC50 is 33

The reported value for COCCOc1cc2c(N[C@H](C)c3cccc(S(N)(=O)=O)c3)nc(C)nc2cc1OC in terms of IC50 is 18

The reported value for COc1cc2nc(C)nc(N[C@H](C)c3cc(N)cc(C(F)(F)F)c3)c2cc1OCCOCC1CC1 in terms of IC50 is 5.1

The reported value for COc1cc2nc(C)nc(N[C@H](C)c3cccc(C(F)(F)C(C)(C)O)c3F)c2cc1OC[C@@H]1CN(S(C)(=O)=O)CCO1 in terms of IC50 is 4.7

The reported value for COc1cc2nc(C)nc(N[C@H](C)c3cc(N)cc(C(F)(F)F)c3)c2cc1OCCOC1COC1 in terms of IC50 is 4.4

This collection of values is drawn from patent US20240336606A1.
